Tested on: Inhibin beta A chain (activin A)
Test: INHBA (activin A) binders on microarrays, primary screen, biochemical, small-molecule microarray, 635 nm fluorescence scan (AID 1107);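 also: mouse activin A protein probed at 4.33 µg/mL on printed slides; score merges bound-protein fluorescence near 667 nm with spot signal-to-noise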
Conditions: small-molecule microarray binding, higher = more signal
Here, each record is paired with measured composite z-score data.
Reply: number alone, nothing else.

Solved entries (count: 2):
compound_structure_string=NCCCCCCNC(=O)[C@@H]1C[C@@H]2C(=O)NCC(=O)N2[C@@H]1c1ccc(O)cc1 quantity_kind="composite z-score" value_reported=0.802
compound_structure_string=O=C1[C@@]23C=C(Br)[C@H](C[C@@H]2CCOC3)[C@@]12CO2 quantity_kind="composite z-score" value_reported=0.684

Could you share which composite z-score value was measured for C=CCOC(=O)[C@H]1[C@@H]2C(=O)O[C@@H](c3ccccc3)[C@@H](c3ccccc3)N2[C@@H](c2ccc(OCCOC(=O)[C@@H]3C[C@@H]4C(=O)N[C@@H](CCCCNC(C)=O)C(=O)N4[C@@H]3c3ccc(O)cc3)cc2)[C@]12C(=O)Nc1ccccc12 ? 0.152

Okay, and C=CC[C@]1(C(=O)NCCCOC)N=C(c2ccc(OCCCO)cc2)O[C@H]1c1ccccc1CN=[N+]=[N-] ? 1.21

Same question, CC(C)C[C@@H]1NC(=O)[C@@H]2C[C@H](C(=O)NCc3ccc(F)cc3)[C@H](c3cccc(OCCO)c3)N2C1=O this time -0.19

Can you check NC(=O)NCC#Cc1ccc2c(c1)[C@]1(C(=O)N2)[C@H](c2ccc(O)cc2)N2[C@H](c3ccccc3)[C@H](c3ccccc3)OC(=O)[C@H]2[C@@H]1C(=O)O next? -0.203

Please do the same for COc1ccc(CCNC(=O)[C@@]2(C)c3ccccc3C(=O)N(C(C)C)[C@H]2c2ccc(CO)cc2)cc1 as well. 0.918
